- Tested System: Cytochrome P450 2C9 (Homo sapiens) (UniProt P11712)
- Sequence (P11712 whole entry, looked up): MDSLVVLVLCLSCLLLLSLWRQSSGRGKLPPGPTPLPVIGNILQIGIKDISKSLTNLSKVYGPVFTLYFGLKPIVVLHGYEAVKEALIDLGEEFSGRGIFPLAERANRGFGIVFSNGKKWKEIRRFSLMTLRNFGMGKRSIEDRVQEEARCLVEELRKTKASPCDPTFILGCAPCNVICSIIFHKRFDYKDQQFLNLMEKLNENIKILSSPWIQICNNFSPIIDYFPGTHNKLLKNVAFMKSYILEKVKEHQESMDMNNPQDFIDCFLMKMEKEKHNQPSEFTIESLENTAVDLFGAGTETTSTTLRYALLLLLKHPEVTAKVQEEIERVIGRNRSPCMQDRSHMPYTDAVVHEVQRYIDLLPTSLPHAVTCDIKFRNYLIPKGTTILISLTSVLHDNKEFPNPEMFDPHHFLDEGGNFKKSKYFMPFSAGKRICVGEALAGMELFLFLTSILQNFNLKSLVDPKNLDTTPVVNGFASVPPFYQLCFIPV
- Assay Explanation: blockers of cytochrome P450 2C9 activity – biochemical, luminescence, ADME assay, primary screen (AID 777)
- Measurement Parameters: CYP2C9 Supersomes, luciferin-H conversion, at 5 µM, stronger effect = higher value
Out of some 96,000 compounds screened, about 19,000 (20%) were called active. The list is a sample of the results.
Please note: criterion met applies when inhibition is 20% or greater, and criterion not met applies otherwise.

Illustrative cases are given below, each with its answer.
CC(=O)N1CC2(C)CN(C(C)=O)CC(C)(C1)C2=O    criterion not met
COc1ccc(C(=O)Nc2cc(C)ccc2NC(=O)COc2ccccc2)cc1    criterion not met
CCc1ccccc1NC(=O)CN(C)S(=O)(=O)c1ccc2c(c1)c(=O)n(C)c(=O)n2C    criterion not met
Cc1ccc(S(=O)(=O)NCc2csc(C)n2)c(C)c1    criterion not met
Cc1ccc2c(c1)-c1c(ssc1=S)C(C)(C)N2C(=O)CN1C(=O)c2ccccc2C1=O    criterion met
Cc1ccc(SCCN2C(=O)NC(C)(C)C2=O)cc1    criterion met

Please turn your attention to the following entry.
Given the entry Cc1ccc2oc(=O)c3cnn(CC(=O)N4CCCCCC4)c3c2c1 , answer whether its inhibition meets or surpasses 20%.
criterion not met
